B1: INTS3 (parent)
chain: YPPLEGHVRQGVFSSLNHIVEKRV

# Variants of: B1
# test.name: protein stability index of a GFP-peptide fusion (GPS, HEK-293T) (PSI 1-6); higher = more stable;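 further: lentivirally expressed fusions sorted by FACS into six bins by GFP to DsRed ratio, PSI derived from sequencing read proportions per bin multiplied by bin number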
# test.conditions: c terminus: a fixed tail appended
Listing: protein stability index of selected variants
I only need the number, thanks.

construct.sequence: YPPLEGHVRQKVFSSLNHIVEKRV [G11K]
protein stability index: 2.93
--
construct.sequence: YPPLEGHVRNGVFSSLNHIVEKRV [Q10N]
protein stability index: 1.96
--
construct.sequence: YPPLEGHVRQGVFSSLNHIVYKRV [E21Y]
protein stability index: 2.23
--
construct.sequence: YPPTEGHVRQGVFSSLNHIVEKRV [L4T]
protein stability index: 1.79
--
construct.sequence: YPPLEGHVRQGVWSSLNHIVEKRV [F13W]
protein stability index: 2.4
--
construct.sequence: YPPLEGHVRQGHFSSLNHIVEKRV [V12H]
protein stability index: 2.53
--
construct.sequence: YPPREGHVRQGVFSSLNHIVEKRV [L4R]
protein stability index: 2.32
--
construct.sequence: YPPLEGHVRQGVGSSLNHIVEKRV [F13G]
protein stability index: 3.33

protein stability index measured on YPELEGHVRQGVFSSLNHIVEKRV [P3E] = 2.86

protein stability index measured on YPPLEGHVRQGVFSSLNHIVEKRA [V24A] = 3.31

protein stability index measured on YPPLEGHVRMGVFSSLNHIVEKRV [Q10M] = 1.98

protein stability index measured on YPPLEGHVRQGVYSSLNHIVEKRV [F13Y] = 2.84

protein stability index measured on YPPLEGLVRQGVFSSLNHIVEKRV [H7L] = 2.2

protein stability index measured on YPPLEGHVRQGVFSSLNHGVEKRV [I19G] = 2.57

protein stability index measured on YPPNEGHVRQGVFSSLNHIVEKRV [L4N] = 2.19
